Test system: MCF7 breast
assay.protocol: NCI-60 one-dose screen, 48 h (100 = growth as untreated, 0 = no growth, -100 = all killed)
condition.label: 10 µM unless noted
This is part of a sample that, as a whole, favours compounds with a hit. Of some 83,000 tested, about 20% had one in any assay.
Cut-off 60% on growth, inclusive. At or above means Criterion met; below means Criterion not met.

Some entries whose results are on file:
COc1ccc2c(c1)c(-c1nnc(N)nc1-c1cn(C)c3ccccc13)cn2C : Criterion met
COc1cc2c3c(n(CCCNC4CCC4)c(=O)c2cc1OC)-c1cc2c(cc1C3=O)OCO2 : Criterion not met
O=[N+]([O-])c1ccc(-c2nnc(SCc3ccc(O)c4ncccc34)n2-c2ccccc2)cc1 : Criterion not met
CCN(CC)Cc1c(-c2cccc(OC(F)(F)F)c2)[nH]c2ccc(N3CCCC3)cc2c1=O : Criterion met
CC(C)=CCc1c(O)c(CC=C(C)C)c2c(c1O)C(=O)C1=C[C@@H]3C[C@H]4C(C)(C)O[C@@](C/C=C(\C)C(=O)O)(C3=O)[C@@]14O2 : Criterion not met

Task: I'd appreciate it if you could say whether CN(C)C(=O)C1=NC(CO)C(=O)N(c2ccc(Cl)cc2)N1 (configuration not stated) has growth at least equal to 60%.
Output: Criterion met

Task: Same for Cn1c(SC(C(=O)Nc2ccc(F)cc2)c2ccccc2)nc2ccccc2c1=O (configuration not stated)
Output: Criterion met

Task: Please do the same for `O=C1c2c(c3c4cc(Br)ccc4[nH]c3c3ccc4ccccc4c23)C(=O)N1CCN1CCNCC1` as well.
Output: Criterion not met

Task: Next up: `O=C1c2c(c3c4cccnc4[nH]c3c3ccc4ccccc4c23)C(=O)N1CCN1CCOCC1`
Output: Criterion not met

Task: Input `CN1CCN(Cc2ccc(NC(=O)c3cncc(C#Cc4[nH]nc5ncncc45)c3)cc2C(F)(F)F)CC1`
Output: Criterion not met

Task: Now the compound `O=S(=O)(Nc1cc(Cl)c(F)c(Cl)c1)c1ccc(-c2cnc(C3CC3)o2)cc1`
Output: Criterion not met

* * *

Tested on: UACC-62 melanoma
assay.protocol: NCI-60 one-dose screen, 48 h (100 = growth as untreated, 0 = no growth, -100 = all killed)
condition.label: 10 µM unless noted
Method: Growth inhibition of the UACC-62 human tumor cell line is measured as a screen for anti-cancer activity. Cells are grown in 96 well plates and exposed to the test compound for 48 hours. Compounds are tested at a single concentration, which is 10^-5 M for most compounds. The reported endpoint is percent growth (GI% or GIPRCNT), where numbers from 0 - 100% represent growth inhibition, and numbers from -100% - 0 represent cell death. For example, a value of 40 represents 60% growth inhibition. […]
About 83,000 compounds went through this panel and 20% of them were active in at least one assay; those are over-represented in the sample as a whole.
quantity.name: growth (%)
Give bare numbers, in %.

Recorded results for 5 molecules are shown here.
CCOC(=O)c1c(NCC(=O)Nc2cccc([N+](=O)[O-])c2)sc2c1CCCC2 : -90.3
CC(=O)c1sc(Nc2cccc(Nc3nc(C)c(C)s3)c2)nc1C : 48.8
C=CCn1c(SCC(=O)Nc2cccc(C(=O)/C=C/c3ccccc3Cl)c2)nc2ccccc2c1=O : 83.4
Cn1cc2c(c1)-c1c(sc3nc(-c4ccc(NC(=O)Nc5cc(C(C)(C)C)on5)cc4)cn13)CC2 : 87.7
O=C1c2c(c3c4ccc(Br)cc4oc3c3[nH]c4ccccc4c23)C(=O)N1CCO : 23.5

For each of the molecules below, note its growth.
1. COc1ccc(C(=O)c2c(N)c(C#N)cn2-c2cccc(OC)c2)cc1
2. O=C(COc1cccc2cccnc12)Nc1ccc(C(=O)/C=C/c2ccc(Cl)cc2)cc1
3. N#C/C(=C\c1ccc2ccccc2c1)C(=O)Nc1sc2c(c1C#N)CCC2
4. Cn1cc(-c2nn3c(=O)cc(-c4ccccc4)nc3s2)c2cc(F)ccc21
5. Cc1nc(-c2cc3ccccc3c(N3CCN(C)CC3)n2)cs1

Output:
18.8
72.6
90.3
33.9
90.8

* * *

Test system: OVCAR-8 ovarian
assay.protocol: NCI-60 one-dose screen, 48 h (100 = growth as untreated, 0 = no growth, -100 = all killed)
condition.label: 10 µM unless noted
Compounds without any hit were thinned out: in the full panel of roughly 83,000, 20% have a hit.
quantity.name: growth (%)
Answers are plain numbers, in %.

Answer for every listed entry: what is its growth? The entries follow.
1. c1ccc(-c2c(-c3ccccc3)[n+](Cc3ccc4ccccc4c3)c(-c3ccccc3)n2Cc2ccc3ccccc3c2)cc1
2. Cn1c2ccc(Br)cc2c2c3c(c4c5cc(F)ccc5oc4c21)C(=O)N(O)C3=O
3. COc1ccc(-c2nnc(/N=C3/C(=O)Nc4ccc(Br)cc43)o2)cc1

Output:
-69.3
75.1
99.9

Provide each entry's growth from the list below.
1. COCCOc1ccc(-c2csc(NC(C)=O)n2)cc1NS(=O)(=O)c1cccc2c(N(C)C)cccc12
2. CCc1ccc(NC(=O)N[C@@H](Cc2cccc(F)c2)C(=O)N[C@@H]2C(=O)N3CCC[C@H]3C(=O)N3CCCC[C@H]3C(=O)N[C@@H](C)C(=O)N3C[C@H](C)C[C@H]3C(=O)O[C@H]2C)c(F)c1
3. Cc1ccc(-c2csc(N/N=C/c3nc4ccccc4n3C3CC3)n2)cc1
4. CC(=O)C1=NN(c2ccc(Cl)cc2)C(=O)CN1C
5. CC(C)(C)OC(=O)N1CCN(S(=O)(=O)/N=C2\NC(=O)NC2=C(Cl)Cl)CC1

Output:
1: 97.6; 2: 23.1; 3: 18.9; 4: 102; 5: 100

* * *

Test system: SF-539 CNS
assay.protocol: NCI-60 one-dose screen, 48 h (100 = growth as untreated, 0 = no growth, -100 = all killed)
condition.label: 10 µM unless noted
Description: Cells are grown in 96 well plates and exposed to the test compound for 48 hours. Compounds are tested at a single concentration, which is 10^-5 M for most compounds. The reported endpoint is percent growth (GI% or GIPRCNT), where numbers from 0 - 100% represent growth inhibition, and numbers from -100% - 0 represent cell death. For example, a value of 40 represents 60% growth inhibition. A value of 0 means no net growth occurred over the course of the experiment. […]
The panel holds about 83,000 compounds, 20% with a hit somewhere; the sample as a whole holds those more often.
Exercise: for every item that follows, state its recorded growth.
Numbers only, in %.

COc1cc2c3c(n(CCCN4CCC[C@H]4C(N)=O)c(=O)c2cc1OC)-c1cc2c(cc1C3=O)OCO2 : -2.78
CCN(CC)CCCC(C)NCC(=O)NC(c1ccc2c(c1)OCO2)c1cc(Cl)c2cccnc2c1O (stereo not given) : 6.63
O=C(Nc1ccc(Cl)cc1)Nc1nc2ccc([N+](=O)[O-])cc2s1 : -22.3
O=S(=O)(NC1CC2CCC1C2)c1ccc2c(c1)C(=NO)c1cc(S(=O)(=O)NC3CC4CCC3C4)ccc1-2 (stereo not given) : -35
CCOC(=O)C1=C(C)N=C2Sc3ccccc3N2C1c1ccccc1 (stereo not given) : 90.3
Cc1nn(-c2ccccc2)cc1/C=N/Nc1nc(Nc2ccccc2)nc(Nc2ccc(S(N)(=O)=O)cc2)n1 : -71.1
COc1ccc(NS(=O)(=O)c2ccc(-c3cnc(C4CC4)o3)cc2)cc1Cl : 13.3
NC(=O)C(=Cc1ccc(Cl)cc1)C(N)=O : 55.6

Could I get growth for every one of these entries?
1. C(=C(\C1=NCCN1)n1cnc2ccccc21)/c1ccc2ccccc2c1
2. COc1cc(/C=N/n2cnc3oc(-c4ccccc4)cc3c2=N)cc(CN2CCCC2)c1O

Output:
[82, 93.5]

* * *

Tested on: SK-OV-3 ovarian
assay.protocol: NCI-60 one-dose screen, 48 h
condition.label: 10 µM unless noted
About 83,000 compounds went through this panel and 20% of them were active in at least one assay; those are over-represented in the sample as a whole. Activity calls are given as the source filed them. How the source made its calls: active means growth percent below 10; inactive means the rest.
Choose one outcome from this list and give only that: yes (1) = active, no (0) = inactive

Solved entries (count: 3):
O=C1c2c(c3c4cc(O)ccc4oc3c3[nH]c4ccccc4c23)C(=O)N1O : yes (1)
O=C(Nc1cccc(Cl)c1)Nc1nc2ccc([N+](=O)[O-])cc2s1 : yes (1)
Oc1ccc(CSc2nnc(-c3ccccc3)o2)c2cccnc12 : no (0)

Task: Could you please tell me the result logged for `Cc1cc(=O)n2nc(-c3c[nH]c4ccccc34)sc2n1` in this assay?
Output: no (0)

Task: Moving on to `Cc1cn(-c2cc(NC(=O)c3cncc(C#Cc4cnc5ccc(O[C@H]6CCOC6)nn45)c3)cc(C(F)(F)F)c2)cn1`
Output: no (0)

* * *

System: A498 renal
assay.protocol: NCI-60 one-dose screen, 48 h (100 = growth as untreated, 0 = no growth, -100 = all killed)
condition.label: 10 µM unless noted
This is part of a sample that, as a whole, favours compounds with a hit. Of some 83,000 tested, about 20% had one in any assay.
The threshold is inclusive: growth of exactly 20% counts as Satisfied; values below receive Not satisfied.

The following compounds have reported results that may help.
CN1C(=O)N(C)C2C1NN=c1s/c(=C\c3ccccn3)c(=O)n12 (centres undefined) : Satisfied
Clc1ccc(-c2csc(N/N=C/c3nc4ccccc4n3C3CC3)n2)cc1 : Satisfied
O=S(=O)(Nc1cc(Cl)cc(Cl)c1)c1ccc(-c2cnc(C3CC3)o2)cc1 : Not satisfied
O=C(NCCNc1cc(-c2cn(-c3ccccc3)nc2-c2cccc(O)c2)ccn1)Nc1ccc(Cl)c(C(F)(F)F)c1 : Satisfied
CNC(=O)c1cc(N2CCc3cc(NC(=O)Nc4ccc(Cl)c(Cl)c4)ccc32)ccn1 : Satisfied

Task: State whether the measured growth reaches 20%, counting equality as reaching it, for `O=C(NCCCNc1cc(-c2cn(-c3ccccc3)nc2-c2cccc(O)c2)ccn1)Nc1ccc(F)cc1`
Output: Not satisfied

Task: Entry to check: `COc1ccc2c(ccn2C(=O)N2c3ccccc3Sc3ccccc32)c1`
Output: Not satisfied

Task: Try this compound too: `CC(=O)Nc1cccc(-n2cnc3cc(-c4ccc(O)cc4)ccc32)c1`
Output: Not satisfied

Task: `N#Cc1c(-c2cccs2)cc(-c2cnccn2)nc1SCC(=O)NNC(=S)Nc1ccc(F)cc1` , same question.
Output: Satisfied
